System: A549
assayNotes: Antiproliferative activity against human A549 cells assessed as reduction in cell viability measured after 72 hrs by sulforhodamine B assay
Assay type: functional, cell-based
experimentalParameters: A549, 72 h
attributeMeasured: IC50 (µM)
Give bare numbers, in µM.

// known answers, use as guide
- smilesCode: "CO[C@@]1(C)N(CCc2ccccc2)C(=O)c2cc3c4ccccc4n(C)c3c(=O)n21"
  quantityUnit: "µM"
  IC50: 12.9
- smilesCode: "CO[C@@]1(C)N(/C=C\\c2ccccc2)C(=O)c2cc3c4ccccc4n(C)c3c(=O)n21"
  quantityUnit: "µM"
  IC50: 10.6
- smilesCode: "C=C[C@@]1(C)C=C(C)[C@@H]2[C@@H]3[C@H](Oc4ccc(cc4)C[C@@H]4C(=O)NC(=O)[C@@H]4C(=O)[C@H]31)[C@@H]1[C@@H](C)C[C@@H](C)C[C@]12C"
  quantityUnit: "µM"
  IC50: 10.3

We next turn to a different compound, shown below.
Lookup: I am curious: what IC50 value has been reported for C=C[C@@]1(C)C=C(C)[C@@H]2[C@@H]3[C@H](Oc4ccc(cc4)C[C@]45NC(=O)/C(=C(/O)[C@H]31)[C@H]4[C@@H]1C(=O)C(C)=C3[C@H](C)[C@@H](C)O[C@@]3(O)[C@]1(O)O5)[C@@H]1[C@@H](C)C[C@@H](C)C[C@]12C ?
Found: 12.3
